- ASSAYED SYSTEM: HSP90a protein (Homo sapiens)
- Construct: purchased BPS Bioscience 50298
- ASSAY COMMENT: HSP90α-binding fluorescent polarization (FP) assay, FITC-geldanamycin probe
- RUN CONDITIONS: FP competition with FITC-geldanamycin, 5 nM, 120 min at 25° C.
Kindly state IC50 for each of the entries shown.

Lookup: Bench note: what IC50 did C=C(F)C(=O)N1CCN(c2nc(OC[C@@H]3CCN(CCCOCCC(=O)NCc4ccc(-n5c(O)nnc5-c5cc(C(C)C)c(O)cc5O)cc4)C3)nc3c2CCN(c2cccc4cccc(Cl)c24)C3)C[C@@H]1CC#N [Compound 170] show?
Found: 0.1 to 1 µM

Lookup: Continue with CCC(=O)N1CCN(c2nc(OCC3CCN(C(=O)C4CCN(Cc5ccc(-n6c(O)nnc6-c6cc(C(C)C)c(O)cc6O)cc5)CC4)CC3)nc3c2CCN(c2cccc4cccc(Cl)c24)C3)C[C@@H]1CC#N [Compound 147]
Found: < 0.1 µM

Lookup: Continue with C=C(F)C(=O)N1CCN(c2nc(N3CCC(CN4CCN(Cc5ccc(-n6c(O)nnc6-c6cc(CC)c(O)cc6O)cc5)CC4)CC3)nc3c2CCN(c2cccc4cccc(Cl)c24)C3)C[C@@H]1CC#N [Compound 135]
Found: 0.1 to 1 µM

Lookup: Continue with C=C(F)C(=O)N1CCN(c2nc(OC[C@@H]3CCN(C(=O)c4ccc5c(c4)CN(C(=O)c4cc(C(C)C)c(O)cc4O)C5)C3)nc3c2CCN(c2cccc4cccc(Cl)c24)C3)C[C@@H]1CC#N [Compound 165]
Found: 0.1 to 1 µM
